- assay-details: qHTS for Inhibitors of TGF-b; note: nearly all actives have a fitted effect of over 65% in size
- measurement-setup: HepG2 CAGA-GFP TGF-b/SMAD3 reporter, GFP fluorescence, 18 h, TGF-beta stimulated, 500 pg/mL final; series mostly up to 46.1 µM
Hit rate of the full screen: of about 410,000 compounds, about 5,000 (1.2%) were called active. Inconclusive results (about 13%) are left out. Calls come from the whole dose curve; as a rule, active = well fitted inhibition curve with a large enough effect; inconclusive = small, poorly fitted or top-dose-only effect; inactive = no such curve, though single readings can be large or run the other way. Shown is part of a subset that was picked to be rich in actives.
// classify into 1 for active, 0 for inactive

| record-smiles | class-assignment |
| --- | --- |
| Cc1cccc(CS(=O)(=O)c2ncc(Cl)c(C(=O)Nc3ccc(F)cc3)n2)c1 | 1 |
| CCS(=O)(=O)c1ncc(N(Cc2ccc(F)cc2)Cc2ccco2)c(C(=O)Nc2cc(C)ccc2C)n1 | 0 |
| O=C(CSc1nc2nccnc2c(=O)n1CCc1c[nH]c2ccccc12)Nc1ccccc1F | 0 |

Switching to the query record.
Request: Entry O=C(C[C@H]1C[C@H](C(=O)N2CCOCC2)[C@@]2(CCC3CCCC3)c3[nH]c4ccc(Cl)cc4c3CCN2C1=O)NCc1ccco1 : call = ?
Result: 0
